assay_overview: Pharmacokinetic studies in mice
Type: in vivo
cond: male, mouse, serum, sc; CD-1 mice, s.c. (5 mg/kg); read-out: MRTINF_obs
Overview of recorded MRT inf for various compounds
Give the quantity in h, number only.

> print(dat)
                                   compound  recorded.metric  measure.unit  value.reported
1  O=C[C@H](C[C@@H]1CCNC1=O)NC(=O)[C@H](CC1CCCCC1)NC(=O)c1ccc2ccccc2n1 [compound 4]          MRT inf             h            2.95

From here, focus on the item given below.
Could you please provide reported MRT inf for CC(C)C(NC(=O)c1ccc2ccccc2n1)C(=O)N[C@@H](CC1CCCCC1)C(=O)N[C@H](C=O)C[C@@H]1CCNC1=O (some centres unmarked) [10d] ? Thanks! 1.7
